# ASSAY TARGET: TYK2 (JH2domain-pseudokinase) (Homo sapiens, UniProt P29597)
# Construct: TYK2 (JH2domain-pseudokinase)-tagged T7 phage strains were prepared in an E. coli host derived from the BL21 strain
# Sequence (P29597 589-875 limits assumed): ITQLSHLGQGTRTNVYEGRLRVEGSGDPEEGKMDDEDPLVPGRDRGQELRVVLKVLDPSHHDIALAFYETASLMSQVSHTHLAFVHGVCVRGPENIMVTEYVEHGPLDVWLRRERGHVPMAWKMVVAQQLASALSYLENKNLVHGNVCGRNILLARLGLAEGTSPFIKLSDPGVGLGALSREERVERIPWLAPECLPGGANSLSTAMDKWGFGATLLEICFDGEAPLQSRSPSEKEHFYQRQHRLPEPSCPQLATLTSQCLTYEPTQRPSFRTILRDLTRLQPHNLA
# ASSAY SUMMARY: TYK2 JH2 domain binding assay (KINOMEscan)
pKd: −log10 of the molar value.
MEASUREMENT LABEL: pKd

[
  {
    "COMPOUND": "COc1c(Nc2cc(Nc3cc(C)nc(C)n3)ncn2)ncc(-c2cnn(C)c2C)c1C",
    "MEASUREMENT LABEL": "pKd",
    "VALUE REPORTED": "> 9.70"
  },
  {
    "COMPOUND": "Cc1cc(Nc2cc(Nc3ccc(C4CC4)cc3N(C)S(C)(=O)=O)ncn2)nc(C)n1",
    "MEASUREMENT LABEL": "pKd",
    "VALUE REPORTED": "> 9.70"
  },
  {
    "COMPOUND": "COc1c(Nc2cc(Nc3cc(C)nc(C)n3)ncn2)cccc1-c1nc(C)nn1C",
    "MEASUREMENT LABEL": "pKd",
    "VALUE REPORTED": "8.00 to 9.00"
  },
  {
    "COMPOUND": "COc1c(Nc2cc(Nc3cc(C)nc(C)n3)ncn2)cccc1-c1ncc(F)cn1",
    "MEASUREMENT LABEL": "pKd",
    "VALUE REPORTED": "9.00 to 9.70"
  },
  {
    "COMPOUND": "Cc1cc(Nc2cc(Nc3ccccc3S(C)(=O)=O)ncn2)nc(C)n1",
    "MEASUREMENT LABEL": "pKd",
    "VALUE REPORTED": "9.00 to 9.70"
  },
  {
    "COMPOUND": "[2H]C([2H])([2H])N(c1cc(-c2nnc(C)n2C)cnc1Nc1cc(Nc2cc(C)nc(C)n2)ncn1)S(C)(=O)=O",
    "MEASUREMENT LABEL": "pKd",
    "VALUE REPORTED": "> 9.70"
  },
  {
    "COMPOUND": "COc1cc(-c2cnn(C)c2)c(C)nc1Nc1cc(Nc2cc(C)ncn2)ncn1",
    "MEASUREMENT LABEL": "pKd",
    "VALUE REPORTED": "9.00 to 9.70"
  },
  {
    "COMPOUND": "Cc1cc(Nc2cc(Nc3ncc(-c4ncn(C)n4)cc3N(C)S(C)(=O)=O)ncn2)nc(C)n1",
    "MEASUREMENT LABEL": "pKd",
    "VALUE REPORTED": "8.00 to 9.00"
  },
  {
    "COMPOUND": "Cc1cc(Nc2cc(Nc3ccccc3OC(F)(F)F)ncn2)nc(C)n1",
    "MEASUREMENT LABEL": "pKd",
    "VALUE REPORTED": "< 8.00"
  },
  {
    "COMPOUND": "COc1cc(-c2cnn(C)c2C)ccc1Nc1cc(Nc2cc(C)nc(C)n2)ncn1",
    "MEASUREMENT LABEL": "pKd",
    "VALUE REPORTED": "> 9.70"
  },
  {
    "COMPOUND": "COCCn1cnc(-c2cccc(Nc3cc(Nc4cc(C)nc(C)n4)ncn3)c2OC)n1",
    "MEASUREMENT LABEL": "pKd",
    "VALUE REPORTED": "9.00 to 9.70"
  },
  {
    "COMPOUND": "CN(c1ccccc1Nc1cc(Nc2cccc(C#N)n2)ncn1)S(C)(=O)=O",
    "MEASUREMENT LABEL": "pKd",
    "VALUE REPORTED": "> 9.70"
  },
  {
    "COMPOUND": "CN=S(C)(=O)c1cc(-c2cnn(C)c2C)ccc1Nc1cc(Nc2cc(C)nc(C)n2)ncn1 (stereo not drawn)",
    "MEASUREMENT LABEL": "pKd",
    "VALUE REPORTED": "> 9.70"
  },
  {
    "COMPOUND": "COc1cc(-c2nc(C(F)(F)F)n(C)n2)ccc1Nc1cc(Nc2cc(C)nc(C)n2)ncn1",
    "MEASUREMENT LABEL": "pKd",
    "VALUE REPORTED": "8.00 to 9.00"
  },
  {
    "COMPOUND": "COc1c(Nc2cc(Nc3cc(C)nc(C)n3)ncn2)cccc1-c1ccnnc1",
    "MEASUREMENT LABEL": "pKd",
    "VALUE REPORTED": "8.00 to 9.00"
  },
  {
    "COMPOUND": "COc1c(F)cccc1Nc1cc(Nc2cc(C)nc(C)n2)ncn1",
    "MEASUREMENT LABEL": "pKd",
    "VALUE REPORTED": "< 8.00"
  },
  {
    "COMPOUND": "Cc1cc(Nc2cc(Nc3ccc(Br)cc3N(C)S(C)(=O)=O)ncn2)nc(C)n1",
    "MEASUREMENT LABEL": "pKd",
    "VALUE REPORTED": "> 9.70"
  },
  {
    "COMPOUND": "Cc1cc(Nc2cc(Nc3ncc(-c4nc(C(F)(F)F)n(C)n4)cc3N(C)S(C)(=O)=O)ncn2)nc(C)n1",
    "MEASUREMENT LABEL": "pKd",
    "VALUE REPORTED": "> 9.70"
  },
  {
    "COMPOUND": "COc1c(Nc2cc(Nc3cc(C)nc(C)n3)ncn2)cccc1-c1noc(C)n1",
    "MEASUREMENT LABEL": "pKd",
    "VALUE REPORTED": "> 9.70"
  },
  {
    "COMPOUND": "COc1cc(C#N)cnc1Nc1cc(Nc2cc(C)nc(C)n2)ncn1",
    "MEASUREMENT LABEL": "pKd",
    "VALUE REPORTED": "< 8.00"
  },
  {
    "COMPOUND": "Cc1cc(Nc2cc(Nc3ncc(-c4cc(C)nn4C)cc3N(C)S(C)(=O)=O)ncn2)nc(C)n1",
    "MEASUREMENT LABEL": "pKd",
    "VALUE REPORTED": "> 9.70"
  },
  {
    "COMPOUND": "Cc1c(-c2cnc(Nc3cc(NC(=O)C4CC4)ncn3)c(N(C)S(C)(=O)=O)c2)cnn1C",
    "MEASUREMENT LABEL": "pKd",
    "VALUE REPORTED": "> 9.70"
  },
  {
    "COMPOUND": "Cc1cc(Nc2cc(Nc3ncccc3C(C)(C)O)ncn2)nc(C)n1",
    "MEASUREMENT LABEL": "pKd",
    "VALUE REPORTED": "9.00 to 9.70"
  },
  {
    "COMPOUND": "Cc1cc(Nc2cc(Nc3ncc(C4CCOCC4)cc3N(C)S(C)(=O)=O)ncn2)nc(C)n1",
    "MEASUREMENT LABEL": "pKd",
    "VALUE REPORTED": "9.00 to 9.70"
  },
  {
    "COMPOUND": "COc1c(-c2noc(C)n2)ccnc1Nc1cc(Nc2cc(C)nc(C)n2)ncn1",
    "MEASUREMENT LABEL": "pKd",
    "VALUE REPORTED": "> 9.70"
  },
  {
    "COMPOUND": "COc1ccccc1Nc1cc(Nc2cc(C)nc(C)n2)ncn1",
    "MEASUREMENT LABEL": "pKd",
    "VALUE REPORTED": "8.00 to 9.00"
  },
  {
    "COMPOUND": "Cc1cc(Nc2cc(Nc3ccc(C4CCOCC4)cc3N(C)S(C)(=O)=O)ncn2)nc(C)n1",
    "MEASUREMENT LABEL": "pKd",
    "VALUE REPORTED": "> 9.70"
  },
  {
    "COMPOUND": "COc1c(Nc2cc(Nc3cc(C)ncn3)ncn2)cccc1-c1ncn(C)n1",
    "MEASUREMENT LABEL": "pKd",
    "VALUE REPORTED": "> 9.70"
  },
  {
    "COMPOUND": "COc1c(Nc2cc(Nc3cc(C)nc(C)n3)ncn2)cccc1-c1ncn(CC2CCCCO2)n1 (stereo not drawn)",
    "MEASUREMENT LABEL": "pKd",
    "VALUE REPORTED": "9.00 to 9.70"
  },
  {
    "COMPOUND": "Cc1cc(Nc2cc(Nc3ncccc3S(C)(=O)=O)ncn2)nc(C)n1",
    "MEASUREMENT LABEL": "pKd",
    "VALUE REPORTED": "> 9.70"
  },
  {
    "COMPOUND": "Cc1cc(Nc2cc(Nc3c(F)cc(-c4cnn(C)c4C)cc3S(C)(=O)=O)ncn2)nc(C)n1",
    "MEASUREMENT LABEL": "pKd",
    "VALUE REPORTED": "8.00 to 9.00"
  },
  {
    "COMPOUND": "COc1c(Nc2cc(Nc3cc(C)nc(C)n3)ncn2)cccc1-c1nc(C)nn1C1COC1",
    "MEASUREMENT LABEL": "pKd",
    "VALUE REPORTED": "< 8.00"
  },
  {
    "COMPOUND": "Cc1cc(Nc2cc(Nc3ncc(-c4cc(C(F)(F)F)nn4C)cc3N(C)S(C)(=O)=O)ncn2)nc(C)n1",
    "MEASUREMENT LABEL": "pKd",
    "VALUE REPORTED": "9.00 to 9.70"
  }
]
